molecule	melting point
CC(O)(C(=O)Nc1ccc(S(=O)(=O)N2CCCCC2)cc1)C(F)(F)F (centres undefined)	164 to 166 °C
CCOC(=O)c1cc(NCc2c(C)cccc2C)c2nc(C)n(COCc3ccccc3)c2c1	155 to 156 °C
CN(C)CCNC(=O)c1cccc2c1c(C(=O)C(=O)NC1=CC(=O)OC1)cn2Cc1ccc(Cl)cc1	225 to 227 °C
N#Cc1ccc2c(c1)CCN(C1CCC3(CC1)OCCO3)C2	127 °C
COc1ccc(S(=O)(=O)c2ncn(-c3ccccc3)c2-c2ccccc2)cc1	157 °C
COc1cc(C(=O)NS(=O)(=O)c2ccccc2C)ccc1Cc1cccc2ccc(C(=O)NCC(C)C)cc12	212 to 214 °C
c1ccc(CCc2ccc[nH]2)cc1	40 to 42 °C
CCCCCC/C(=C\c1ccccc1)C1O[C@@H](C(=O)OC)[C@H](C(=O)OC)O1	49 to 50 °C
CCOC(=O)c1c(-c2ccc(OC)c(OC)c2)c2cc(Cl)ccc2[nH]c1=O	209 to 210 °C

---

This section presents compounds with their documented melting point values.
value kind: melting point

compound	val
CCCCCCCCCCCCCCCCNC(=O)CCCO	89.5 to 90 °C
ClCCCCOc1ccccc1/C=C/c1nc2ccccc2s1	98 to 100 °C
CCc1nc2c(N)nc3ccccc3c2o1	175 to 178 °C
NS(=O)(=O)c1ccc(NC(=O)Nc2c(F)c(F)c(F)c(F)c2F)cc1	251 to 253 °C
Cc1nc(-c2ccc(-c3cnc4[nH]c(=O)n(CCC5CCOCC5)c4n3)cc2)n[nH]1	290 to 292 °C
COc1ccc2c(c1)c(Cc1cc(=O)n(C3CCCCC3)[nH]1)c(C)n2C(=O)c1ccc(Cl)cc1	187 to 188 °C
CCN1C(=O)CCC2=C1CCc1cc(F)ccc12	72 °C
COc1ccc(Cc2cnc(NCCc3ccccc3Cl)nc2N2CCc3cc(OC)c(OC)cc3C2)cc1OC	140 to 141 °C
CC(=O)NC[C@H]1CN(c2ccc(C(=O)c3cnc4c(OCc5ccccc5)cccn34)cc2)C(=O)O1	193 to 195 °C
CCCOC(=N)c1sc2ccccc2c1O	185 °C
CCCC(C)(CO)c1cc(Cl)nnc1Cl (stereo unspecified)	99 to 100 °C

---

given smiles	melting point
CC(=O)Nc1nc(CCc2ccc(CO)cc2)c(Cc2ccc(S(C)(=O)=O)cc2)s1	210 to 211 °C
CC1(C)Cc2c(c(N3CCOCC3)nc3sc4c(NCc5cnc6ccccc6c5)ncnc4c23)CO1	272 to 273 °C
Clc1ccc2oc(-c3ccccc3)cc2c1	140 to 143 °C
Nc1ccc2c(=O)n3c(nc2c1)C(=Cc1ccc(O)c(O)c1)CC3	263 to 265 °C
CN(C)C(=O)c1cccn1N1C(=O)c2ccccc2C1=O	153 to 155 °C
O=C(c1cnccn1)N1CCCC(c2ccccc2)=N1	98 to 100 °C
C=Cc1ccc(N2C[C@H](CNC(C)=O)OC2=O)cc1F	165 to 166 °C
C#CCn1c(=O)n(C(C)C)c2ccc(-c3ncc(C(F)(F)F)cc3Cl)cc21	109 to 111 °C
CCCc1c(OCCOc2ccc3c(=O)cc(-c4ccc(C(=O)OCC)cc4)oc3c2CCC)ccc(C(C)=O)c1O	167 to 168 °C

---

This section presents molecules with their documented melting point values.

given smiles	melting point
COc1cc(Oc2ccc(Cl)cc2)ccc1[N+](=O)[O-]	88 to 89 °C
COc1cc2[nH]cc(-c3cc4c(Cl)c(F)cnc4[nH]3)c2nc1OC	283 to 284 °C
O=C1NC(=O)C(n2cnc3ccccc32)=C1c1c[nH]c2ccccc12	310 to 320 °C
COc1cc(Br)c2nc(-c3ccc(OC)c(F)c3)cc(Cl)c2c1	176 to 177 °C
C[Si](C)(CCl)c1ccc(-c2ccccc2)cc1	30 to 40 °C
N#Cc1ccc2ccc(CBr)cc2c1	110 to 116 °C

---

compound	melting point
CCCNc1nc(N)nc(N(CCC)c2ccc(OC)c(F)c2)n1	53 to 55 °C
Cc1ncsc1C(=O)Nc1ccc(-n2nc(C(F)(F)F)cc2C2CC2)c(F)c1	95 to 97.6 °C
COc1cc2c(cc1-c1c(C)nn(C)c1C)-c1c(-c3cccs3)c3c(n1CC2)C(=O)N(C(C)C)CCN(C(=O)C(C)C)C3	232 to 235 °C
O=C(C=C(c1cc(Cl)cc(Cl)c1)C(F)(F)F)c1ccc(C(=O)NC2CCCO2)cc1 (centres undefined)	140 to 146 °C
O=C(Nc1cnc2ccccc2c1)OC1CN2CCC1CC2 (centres undefined)	135 to 137 °C
C=CCNC(=O)C1=C(C(=O)Nc2ccc(Br)cc2F)CCCC1	167 to 169 °C
Cc1cnc(-c2cc(F)ccc2CNC(=O)c2nc3n(c(=O)c2OCc2ccccc2)CCOC3(C)C)o1	186 °C
Cc1c(-c2ccc(=O)n(C)c2)cccc1[N+](=O)[O-]	157 to 159 °C
COCOc1ccc(C(=O)O)c(OCc2ccc(Cl)cc2Cl)c1C	174 °C

---

This section presents molecules with their documented melting point values.

molecule	melting point
Cc1nc2n(c1C)N=C(c1ccc(N)cc1)c1cc3c(cc1C2)OCO3	226 to 227 °C
COC(=O)c1ccc(N2CCN(S(C)(=O)=O)CC2)nc1	205 to 207 °C
Nc1c(Cl)ncnc1N[C@@H]1C=C[C@H](CO)C1	144 to 146 °C
Cn1ccc2ccc(/C=C/CN3CCN(C4c5ccccc5CCc5ncccc54)CC3)cc21 (stereo unspecified)	168 to 170 °C
CC1CC(O)=CC(=O)O1 (stereo unspecified)	103 to 104 °C
O=C(O)C=Cc1ccc(O)c(Cl)c1	180 to 182 °C

---

compound	melting point
CCOC(=O)C(=O)c1cn(CC)c2cc(-c3ccc(C(F)(F)F)cc3)ccc12	139 to 141 °C
CC(=O)Nc1ccc(C(=O)O)cc1O	249 °C
CC(Cl)C(CC(=O)c1ccccc1)[N+](=O)[O-] (stereo unspecified)	115 to 117 °C
N#CC(=Cc1ccc2[nH]ccc2c1)C(=O)c1ccc(O)c(O)c1	185 °C
ClC1(c2ccccc2)c2ccccc2-c2ncncc21 (stereo unspecified)	119 to 120 °C
CCCCCCCCC(SCCCCCC)C(=O)Nc1cccc2nnccc12 (stereo unspecified)	54 to 56 °C
O=C(O)CCCCOc1ccccc1OCc1ccccc1	74 to 75 °C
Nc1ccccc1NC(=O)c1cc2cc(OCCO)ccc2s1	215 to 216 °C
CC(c1ccccc1)N1Cc2cncn2C(c2ccc(C#N)cc2)C1=O (stereo unspecified)	157 to 158 °C
COc1ccccc1C=Cc1nc2c(c(=O)n(C)c(=O)n2C)n1C	238 to 240 °C
CN1C(=O)C(C)(C)N=C(c2ccccc2Cl)c2cc([N+](=O)[O-])ccc21	177 to 178 °C
CCCCCC(=O)NC[C@H](CC(C)C)NC(=O)[C@H]1O[C@@H]1C(=O)OCC	120 to 121 °C
N#Cc1c(Cl)nc2ccc([N+](=O)[O-])cc2c1Cl	190 to 192 °C
COc1ccc(CCNC(=O)C(=O)NO)cc1OC1CCCC1	136 to 137 °C
O=C(Nc1cccc(Cc2ccccc2)c1)N1CCc2c(cnc3[nH]ncc23)C1	175 to 178 °C
COc1ccc(C2(C#Cc3cc(C(=O)O)cs3)CCC(=O)CC2)cc1OC1CCCC1	75 to 76 °C
CC(C)COc1c(-c2ccc(S(N)(=O)=O)cc2)cnn(-c2ccc(F)c(F)c2)c1=O	169 to 171 °C
O=C(O)c1ccc2c(c1)C(=C(Cl)Cl)OC(=C(Cl)Cl)O2	199 to 200 °C
CCCCC(C)n1ncc(-c2ccc(S(C)(=O)=O)cc2)c(-c2ccc(F)cc2)c1=O (stereo unspecified)	79 to 80 °C
COC(=O)CCC(=O)c1ccc(CCCCCCNC(C)=O)cc1	87 to 89 °C
COc1nnccc1-c1ccccc1OCC(O)CNC(C)(C)C (stereo unspecified)	110 °C

---

This section presents compounds with their documented melting point values.

compound	melting point
CCOC(=O)c1cc(F)c(N2CCCC2)nc1Cl	95 °C
COc1cccc(CN2CCCCc3cc(CN(O)C(N)=O)ccc32)c1	38 to 42 °C
CCOC(=O)C1(c2ccc3c(c2)OCC(Cc2ccc(-c4ccccc4)cc2)C3=O)CCCC1 (stereo not given)	50 to 56 °C
Cn1c(=O)c2c(ncn2CCCN2CCC(NC(=O)c3ccc(F)cc3)CC2)n(C)c1=O	192 to 193 °C
CC(=O)Oc1cc(C)c(C)c(C)c1C1(OC(C)=O)C(=O)c2ccccc2C1=O	238 to 242 °C

---

This section presents molecules with their documented melting point values.
value kind: melting point

molecule	value kind	val
CSc1ccc(/C=C/C(=O)/C=C/C(=O)O)cc1	melting point	160 to 163 °C
COC(=O)CSCNC(=O)c1ccccc1	melting point	65 to 68 °C
CCCNC(=O)c1c(N)cc(Cl)cc1Cl	melting point	113 to 119 °C
CCOc1cc2c(c3c1OC(C)(C)C3)C(c1cccc(N3C(=O)CNC3=O)c1)=NC(C)(C)C2	melting point	202 to 204 °C
CN(C)C(=O)Nc1coc2ccccc2c1=S	melting point	108 °C
COc1ccc(CN2C(=O)CN(Cc3ccc(C(=O)O)cc3)S2(=O)=O)c(OC)c1	melting point	175 to 177 °C
CS(=O)(=O)c1ccc(-c2cnn(CC(F)(F)F)c(=O)c2-c2ccc(F)cc2)cc1	melting point	177 to 179 °C
CC(O)=C(C#N)CC(=O)Nc1ccc(NC(=O)CBr)cc1	melting point	> 210 °C
COc1cc(COc2nn(-c3ccccc3)cc2C=O)ccc1OCc1nc(-c2ccccc2)cn1C	melting point	126 to 127 °C
Nc1ccc(C(c2ccccc2)c2ccccc2)nc1	melting point	130 to 134 °C
CC(O)C(NC(=O)OC(C)(C)C)C(=O)OCC(=O)c1ccccc1 (stereo unspecified)	melting point	114 °C
